Let's look at some binders and their measured SPOT peptide array binding signal intensity.
biological target: SpBzz1-D1; assay: SPOT peptide array binding signal intensity (averaged, normalized) (arbitrary units (background-subtracted, floor 0; scale differs between SH3 domains)); higher = stronger binding of the SH3 domain to the peptide
reported_endpoint: SPOT peptide array binding signal intensity

binder | result
KMSRSPPRPPSLKII | 1270
FTLPPPPPPPGLDEL | 1530
RTIRKLPLMSLSEYF | 109
GKKVRPLLVLLLSRA | 21.5
QTMRQAPKRPDADVA | 188
KKIRLIFTYPSTVGR | 133
NPNRRAPRRPLSTQH | 352
PSRRAPLQLPQLVNK | 134
EVTPKVPERPSRRKT | 514
RRSKSLPTTPGIRSG | 226
IAPIPMPKPNPTHIS | 37.5
RRSKSLPITPKSIFN | 204
LKHGWKPLRPIKLIS | 362
RAPPPVPKKPSSRIA | 2030
ISNFVPPNLPMRRFK | 748
MSPLGAPPPPPHKDH | 324
AATTSTPPLPRRRAT | 877
